Field: cell viability. Provide a value for each of the compounds that follow.
Test system: Caco-2
Assay: cell viability relative to DMSO; higher = less toxic
Settings: 72 h; 10000 nM
Numbers only here, please. The scale is %.

query: Form field: reported cell viability of FC(F)OC(F)(F)C(F)Cl (centres undefined) [enflurane]
result: 107

query: Form field: reported cell viability of CCS(=O)(=O)N(C)[C@H]1c2cc(C#N)ccc2OC(C)(C)[C@@H]1O [chromanol-293B-(-)-[3R,4S]]
result: 88.9

query: Form field: reported cell viability of COc1ccc2c(c1)c(CC(=O)N1CCOCC1)c(C)n2C(=O)c1ccc(Cl)cc1 [BML-190]
result: 85.6

query: Form field: reported cell viability of Nc1nc(NCCc2ccc(O)cc2)nc2nc(-c3ccco3)nn12
result: 72.5

query: Form field: reported cell viability of Cc1cc(Cl)ccc1OCCCC(=O)NO [droxinostat]
result: 86.5

query: Form field: reported cell viability of Oc1cc(O)c2c(c1)O[C@H](c1ccc(O)c(O)c1)[C@H](O)[C@H]2c1c(O)cc(O)c2c1O[C@H](c1ccc(O)c(O)c1)[C@H](O)C2 [procyanidin-B-2]
result: 105

query: Form field: reported cell viability of CC(C)(C)CC(C)(C)c1cc(Cc2cc(C(C)(C)CC(C)(C)C)cc(-n3nc4ccccc4n3)c2O)c(O)c(-n2nc3ccccc3n2)c1 [bisoctrizole]
result: 87.7

query: Form field: reported cell viability of O=c1oc(-c2ccc(C(F)(F)F)cc2)nn1Cc1cc(Cl)ccc1O
result: 92.6

query: Form field: reported cell viability of COc1ccn2ncc(-c3nc4[nH]nc(NC(=O)c5ccc(F)cc5)c4cc3F)c2c1 [CW-008]
result: 87.7

query: Form field: reported cell viability of O=C(CCCCCCCC(=O)NCCO)NCCO [adelmidrol]
result: 98.9

query: Form field: reported cell viability of FC(F)(F)Oc1ccc2nc(-c3ccc(OCCOCCOc4ccc(-c5nc6ccc(OC(F)(F)F)cc6[nH]5)nc4)cn3)[nH]c2c1 [AI-10-49]
result: 56.7

query: Form field: reported cell viability of CCNC(=O)/C=C/c1cccc(Br)c1 [cinromide]
result: 92.4

query: Form field: reported cell viability of CN1CCCN=C1/C=C/c1cccs1 [pyrantel-pamoate]
result: 100

query: Form field: reported cell viability of O=C(O)[C@H]1CC[C@H](c2cc3cccnc3c(-c3cccc(F)c3)n2)CC1
result: 109
